// values below are reported pIC50
Target or test system: recombinant human htau40 (Homo sapiens, UniProt P10636)
Construct: synthetic straight filaments prepared from recombinant full-length tau; made in house
Sequence (P10636 1-441 isoform P10636-8): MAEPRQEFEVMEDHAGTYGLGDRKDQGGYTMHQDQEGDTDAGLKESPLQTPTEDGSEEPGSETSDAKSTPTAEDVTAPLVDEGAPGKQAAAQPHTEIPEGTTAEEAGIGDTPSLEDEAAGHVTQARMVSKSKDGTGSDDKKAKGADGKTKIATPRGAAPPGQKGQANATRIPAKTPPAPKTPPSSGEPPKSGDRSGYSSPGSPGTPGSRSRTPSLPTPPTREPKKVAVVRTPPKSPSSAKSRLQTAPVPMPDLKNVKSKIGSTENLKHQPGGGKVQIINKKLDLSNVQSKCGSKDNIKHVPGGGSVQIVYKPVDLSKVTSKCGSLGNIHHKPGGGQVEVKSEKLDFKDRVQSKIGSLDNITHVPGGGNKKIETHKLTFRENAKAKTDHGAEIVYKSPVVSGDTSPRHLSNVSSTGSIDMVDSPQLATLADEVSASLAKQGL
Test method notes: Thioflavin S fluorescence assay of arachidonic acid-induced tau polymerization
Assay type: biochemical
Condition parameters: approximate values given in the description; read-out: IC50, arachidonic acid polymerization of full length tau protein
pIC50: −log10 of the molar value.

Sample records with pIC50:
| Molecule | Target or test system | pIC50 |
| --- | --- | --- |
| CCC(=Cc1sc2ccc(OC)cc2[n+]1CCO)C=C1Sc2ccc(OC)cc2N1CCO | recombinant human htau40 (Homo sapiens, UniProt P10636) | ~7.40 |
| Cc1ccc(N=Nc2ccc(-c3ccc(N=Nc4ccc(C)c(C(=O)O)c4O)cc3)cc2)c(O)c1C(=O)O | recombinant human htau40 (Homo sapiens, UniProt P10636) | ~6.40 |
| Cc1cc(N=Nc2c(O)ccc3ccccc23)c(CCCC(=O)O)s1 | recombinant human htau40 (Homo sapiens, UniProt P10636) | ~6.15 |
| COc1ccc2nc(N=Nc3ccc(N(C)c4ccccc4)cc3)sc2c1 | recombinant human htau40 (Homo sapiens, UniProt P10636) | ~7.22 |
| CCN(CC)c1ccc(N=Nc2nc3ccc(OC)cc3s2)cc1 | recombinant human htau40 (Homo sapiens, UniProt P10636) | ~7.22 |

Using the record for O=C1Nc2ccccc2/C1=N/NC(=O)c1cc2ccccc2cc1O [Compound III] , report its pIC50.
~6.22

Now consider CCN(CCO)c1ccc(N=Nc2nc3ccc(OC)cc3s2)cc1 and answer again.
~7.22
